- testedTarget: T1, mouse CD40 antigen (ACROBiosystems) (mouse, UniProt P27512 24-193, limits assumed)
- T1 construct: Bought antigen coated on ELISA plates; construct not described
- T1 sequence (P27512 24-193 limits assumed): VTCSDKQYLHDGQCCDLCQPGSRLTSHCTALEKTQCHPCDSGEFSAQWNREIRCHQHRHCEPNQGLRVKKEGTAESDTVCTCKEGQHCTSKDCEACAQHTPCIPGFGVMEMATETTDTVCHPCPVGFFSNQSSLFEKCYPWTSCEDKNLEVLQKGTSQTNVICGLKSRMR
- protocol: ELISA, coated antigen

- binder: "anti-CD40 monoclonal antibody 1652CD (antibody, human IgG2, kappa, V domains shown) VH: EVQLVESGGGLVQPGGSLRLSCAASGFTFSDYYMSWVRQAPGKGLEWVGFIRNKANAYTTEYAASVKGRFTISRDNSKNTLYLQMNSLRAEDTAVYYCARYGGLRQGWYFDVWGQGTLVTVSS VL: DIQMTQSPSSLSASVGDRVTITCRASQDIRNYLNWYQQKPGKAPKLLIYYTSRRDSGVPSRFSGSGSGTDYTLTISSLQPEDFATYFCQQGKTLPWTFGGGTKVEIKR"
  binding result: "no binding"
- binder: "anti-CD40 monoclonal antibody 1654CD (antibody, human IgG2, kappa, V domains shown) VH: EVQLVESGGGLVQPGGSLRLSCAASGFTFSNYYMSWVRQAPGKGLEWVGFIRNKANAYTTEYAASVKGRFTISRDNSKSTLYLQMNRLRAEDTAVYYCARYGGLKVGWYFDLWGQGTLVTVSS VL: DIQMTQSPSSLSASVGDRVTITCRASQSISNYLAWYQQKPGKAPKLLIYAASSLQSGVPSRFSGSGSGTDYTLTISSLQPEDFATYYCQQGSSYPWTFGGGTKVEIKR"
  binding result: "no binding"
- binder: "anti-CD40 monoclonal antibody 1607CD (antibody, human IgG2, kappa, V domains shown) VH: EVQLVESGGGLVQPGGSLRLSCAASGFTFSDYYMSWVRQAPGKGLEWVGFIRNKANGYTTEYAASVKGRFTISRDNSKSTLYLQMNSLRAEDTAVYYCARYGGLKKGWYFDLWGQGTLVTVSS VL: DIQMTQSPSSLSASVGDRVTITCRASQGIRNYLNWYQQKPGKAPKLLIYYTSSLQSGVPSRFSGSGSGTDYTLTISSLQPEDFATYYCQQGINLPWTFGGGTKVEIKR"
  binding result: "no binding"
